protocol_notes: Cytotoxicity activity against human HepG2 cells assessed by CellTiter-Glo luminescent cell viability assay.
Format: toxicity, cell-based
Design: assay stage confirmatory assay, source tissue liver
condition_parameters: HepG2 cells, read-out: IC50 relative
Activity calls are given as the source filed them. How the calls were made is not given here.
Outcome codes: T = active, F = inactive

{"columns": ["input_smiles", "qualitative_label"],
 "data": [
  ["OCCN1CCN(CCCN2c3ccccc3Sc3ccc(Cl)cc32)CC1", "T"],
  ["O=C(Nc1cccc2cccnc12)c1cn2ccccc2n1", "T"],
  ["Cc1cc(F)ccc1N1CCC(N[C@@H]2CCOC[C@H]2OCC2CC2)CC1", "F"],
  ["O=C(CCCCCn1sc2ccccc2c1=O)Nc1ccc2c(c1)OCO2", "T"],
  ["O=C(NC1(c2ccccc2)CC1)c1c(CN2CCC(N3CCCCC3)CC2)c(-c2cccc(C(F)(F)F)c2)nc2cc(Br)ccc12", "T"],
  ["CN(c1ccc(C(=O)Nc2ccc(S(=O)(=O)N3CCOCC3)cc2)cc1)S(=O)(=O)c1ccccc1", "T"],
  ["CCOc1ccc(C(=O)Nc2nc3ccc(S(=O)(=O)N(C)C)cc3s2)cc1", "F"],
  ["c1ccc2c(OCCN3CCC(N4CCCCC4)CC3)cccc2c1", "T"],
  ["CCn1c(Oc2cccc3cccnc23)nc2c1c(=O)n(C)c(=O)n2C", "T"]
]}

* * *

protocol_notes: Cytotoxicity activity against human HepG2 cells assessed by CellTiter-Glo luminescent cell viability assay.
Assay type: toxicity, cell-based
Set-up: assay stage confirmatory assay, source tissue liver
condition_parameters: HepG2 cells, read-out: IC50 relative
Counter-ions that a name gives are not always drawn. Activity calls are given as the source filed them. How the calls were made is not given here.
Outcomes: YES for active, NO for inactive

{"columns": ["compound", "qualitative_label"],
 "data": [
  ["CC[n+]1c(/C=C2/C=CN(C)c3ccccc32)ccc2ccccc21", "YES"],
  ["Cn1cc(-c2nc(C(=O)Nc3cccnc3-n3cncn3)cs2)cn1", "YES"],
  ["COCCN1COc2c(cc(Cl)c3cccnc23)C1", "YES"],
  ["CN(C)[C@@H](CCOc1cccc2ccccc12)c1ccccc1 [DAPOXETINE HYDROCHLORIDE]", "YES"],
  ["COc1ccc(-c2nc(CC3CCN(C(=O)NC(C)(C)C)C3)no2)cc1 (stereo not given)", "YES"],
  ["C=CCc1cccc(/C=N/NC(=O)CN2CCN(Cc3ccccc3)CC2)c1O", "YES"],
  ["CN1CCCC(CNc2ccc3cc(Cl)ccc3n2)C1 (stereo not given)", "YES"],
  ["CC(C)c1ccc(-c2cc(=O)c3ccccc3o2)cc1", "YES"],
  ["O=S(=O)(c1cccs1)N1CCN(C[C@H](O)COc2cc(Cl)ccc2Cl)CC1", "YES"],
  ["CN(C)CC1CCN(Cc2[nH]c3ccccc3c2Cl)C1 (stereo not given)", "YES"],
  ["Clc1ccc2oc(C3CCNCC3)cc2c1", "YES"],
  ["Cc1cc(NC(=O)CN2CCCC[C@@H]2C)n(C)n1", "NO"],
  ["CC(C)c1ccc(NC(=O)c2ccc(N3CCOCC3)nc2)cc1", "NO"],
  ["O=c1ccc2cc(S(=O)(=O)Nc3cccc4cccnc34)ccc2o1", "YES"],
  ["COc1ccc(NC(=O)c2nc(S(C)(=O)=O)ncc2Br)cc1", "YES"],
  ["CCN(CC)CCNC(=O)C1CCN(c2nn3cc(-c4ccc(OC)cc4)nc3s2)CC1", "YES"],
  ["CC(C)C[C@H](NC(=O)[C@H](Cc1ccccc1)NC(=O)c1cnccn1)B(O)O", "YES"],
  ["C[C@]12CCC3[C@@H](CC[C@]4(O)C[C@@H](O)CC[C@]34C=O)[C@@]1(O)CC[C@@H]2C1=CC(=O)OC1 (stereo not given in full)", "YES"],
  ["Cc1coc2c1C(=O)C(=O)c1c-2ccc2c1CCCC2(C)C", "YES"],
  ["COc1cc(Nc2cnc(C#N)c(O[C@H](C)CN(C)C)n2)ncc1-c1cnn(C)c1", "YES"],
  ["CCC(C)C1OC2(CCC1C)CC1CC(C/C=C(/C)C(OC3CC(OC)C(OC4CC(OC)C(O)C(C)O4)C(C)O3)C(C)/C=C\\C=C3\\COC4C(O)C(C)=CC(C(=O)O1)C34O)O2 (stereo not given)", "YES"],
  ["CCOc1cc(C)c(CN2C[C@@H](CN(C)C)C[C@H](CO)C2)cc1C(C)C", "YES"],
  ["CCS(=O)(=O)Nc1ccc(Oc2ccc(F)cc2F)c(-c2cn(C)c(=O)c3[nH]ccc23)c1", "YES"],
  ["COc1cc2ncnc(-n3nc(-c4ccccn4)nc3N)c2cc1OC", "YES"],
  ["CCN1CCN(c2ccc(C(=O)Nc3nc(-c4cccnc4)cs3)cc2)CC1", "YES"],
  ["CCCc1ccc(-c2ccc(N(C[C@@H](N)[C@@H](C)CC)C(=O)[C@@H]3C[C@H]3c3ccccn3)cc2)cc1", "YES"],
  ["CNc1nc(-c2ccc3c(N)n[nH]c3c2)cc(N2C[C@@H](C(=O)NC3CCCCC3)CC[C@H]2C)n1", "NO"],
  ["O=C(NC(NC(=S)Nc1ccc(F)c([N+](=O)[O-])c1)C(Cl)(Cl)Cl)C(c1ccccc1)c1ccccc1 (stereo not given)", "YES"],
  ["CCS(=O)(=O)N1CCc2ccc(NC(=O)Nc3cccc(Cl)c3)cc21", "YES"],
  ["COc1cc(CNc2cc(C)nc(N)n2)ccc1C", "YES"]
]}
